Test: in vivo
Conditions: rat, po
Entries annotated with measured LD50
Record the value in mg/kg, omitting the unit from your answer.

Worked cases, LD50 given:
>>> recorded_number("CC1C(=NOC(=O)N(C)SC(Cl)(Cl)Cl)SCC(=O)N1C (stereo not drawn)")
3.54
>>> recorded_number("CNC(=O)ON=C1SCC(=O)NC1C (stereo not drawn)")
5.66

Q: # input compound: CNC(=O)ON=C1SC(C)C(=O)NC1(C)C (stereo not drawn) ; wanted: its LD50
A: 0.884
